# credit: patent US20260265238A1

# TARGET ENTITY: SMARCA4-HiBiT HeLa cells (protein which is expressed from the SMARCA4 gene) (Homo sapiens, UniProt P51532)
# Construct: protein which is expressed from the SMARCA2 and SMARCA4 genes; host or cells: HeLa (SMARCA4-HiBiT engineered line)
# Sequence (P51532 whole entry): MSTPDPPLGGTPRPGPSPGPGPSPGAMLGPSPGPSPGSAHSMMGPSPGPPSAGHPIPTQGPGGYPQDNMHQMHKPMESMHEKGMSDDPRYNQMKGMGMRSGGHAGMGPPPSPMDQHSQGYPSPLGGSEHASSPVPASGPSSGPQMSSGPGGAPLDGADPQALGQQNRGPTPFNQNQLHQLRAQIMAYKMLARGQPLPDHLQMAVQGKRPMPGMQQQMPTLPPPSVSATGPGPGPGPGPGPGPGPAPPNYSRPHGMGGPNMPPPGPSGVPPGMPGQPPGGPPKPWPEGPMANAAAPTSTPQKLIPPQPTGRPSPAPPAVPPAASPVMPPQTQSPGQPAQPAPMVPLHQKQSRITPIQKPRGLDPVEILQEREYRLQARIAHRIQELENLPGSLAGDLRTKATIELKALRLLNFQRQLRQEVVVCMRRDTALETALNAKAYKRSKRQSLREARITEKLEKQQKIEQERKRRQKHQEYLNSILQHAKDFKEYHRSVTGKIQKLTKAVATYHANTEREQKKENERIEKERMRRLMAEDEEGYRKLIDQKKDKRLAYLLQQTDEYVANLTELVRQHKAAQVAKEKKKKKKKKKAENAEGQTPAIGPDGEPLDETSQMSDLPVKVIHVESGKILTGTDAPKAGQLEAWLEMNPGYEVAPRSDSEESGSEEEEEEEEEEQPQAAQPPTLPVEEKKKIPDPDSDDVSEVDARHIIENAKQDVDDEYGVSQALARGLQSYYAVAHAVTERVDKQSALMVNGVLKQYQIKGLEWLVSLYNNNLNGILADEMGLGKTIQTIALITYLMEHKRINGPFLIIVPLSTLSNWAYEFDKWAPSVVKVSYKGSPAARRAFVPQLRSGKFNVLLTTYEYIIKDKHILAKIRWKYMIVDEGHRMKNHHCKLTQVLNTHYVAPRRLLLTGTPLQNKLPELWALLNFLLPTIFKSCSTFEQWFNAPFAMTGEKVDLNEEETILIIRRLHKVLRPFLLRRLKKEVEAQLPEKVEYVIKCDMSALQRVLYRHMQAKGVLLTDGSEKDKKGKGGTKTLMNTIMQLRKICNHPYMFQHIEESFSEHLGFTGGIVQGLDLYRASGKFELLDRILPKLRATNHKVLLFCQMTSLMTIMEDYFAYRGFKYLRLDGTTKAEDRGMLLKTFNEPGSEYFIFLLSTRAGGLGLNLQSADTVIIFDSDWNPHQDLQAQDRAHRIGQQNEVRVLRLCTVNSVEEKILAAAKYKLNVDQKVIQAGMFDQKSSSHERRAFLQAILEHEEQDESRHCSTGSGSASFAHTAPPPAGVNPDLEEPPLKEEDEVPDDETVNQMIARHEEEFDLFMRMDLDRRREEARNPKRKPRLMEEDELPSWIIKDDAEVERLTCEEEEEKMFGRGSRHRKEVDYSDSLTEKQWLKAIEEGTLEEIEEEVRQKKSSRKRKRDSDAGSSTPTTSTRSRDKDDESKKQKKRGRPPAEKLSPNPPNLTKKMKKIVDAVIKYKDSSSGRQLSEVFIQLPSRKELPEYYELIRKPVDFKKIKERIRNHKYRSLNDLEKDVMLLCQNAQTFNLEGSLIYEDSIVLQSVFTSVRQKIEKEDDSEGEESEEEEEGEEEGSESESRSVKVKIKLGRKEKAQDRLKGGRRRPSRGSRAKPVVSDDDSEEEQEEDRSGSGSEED
# ASSAY DETAILS: SMARCA4 degradation assay (HiBiT-fusion HeLa cell line, 24 h, luminescence)
# Type: cell-based
# CONDITION PARAMETERS: @ 1 μM
READOUT LABEL: inhibition at 1 µM

MOLECULE	inhibition at 1 µM
CN(C)CC#Cc1nccc(N2C[C@@H]3CN(c4cc(-c5ccccc5O)nnc4N)C[C@@H]3C2)n1	30 to 70%
C[C@H]1CN(c2ccnc(C#CCn3cccn3)n2)CCN1c1cc(-c2ccccc2O)nnc1N	< 30%
C[C@@H]1CCN(c2cc(-c3ccccc3O)nnc2N)CCN1c1ccnc(C#CCN2CC3CC(C2)O3)n1	30 to 70%
CC1(C)CN(c2ccnc(C#CCNC(=O)c3cc4ncccn4n3)n2)CCN1c1cc(-c2ccccc2O)nnc1N	< 30%

For reference, reported inhibition at 1 µM for CC(C#Cc1nccc(N2CCN(c3cc(-c4ccccc4O)nnc3N)CC[C@H]2C)n1)N(C)C (stereo partly drawn) stands at 30 to 70%

`C[C@@H]1CCN(c2cc(-c3ccccc3O)nnc2N)CCN1c1ccnc(C#CCN2CCC(F)(F)C2)n1` yielded inhibition at 1 µM of 30 to 70%

Sure, the documented inhibition at 1 µM for `Nc1nnc(-c2ccccc2O)cc1N1CCCN(c2ccnc(C#CCN3C[C@@H]4C[C@H]3CO4)n2)CC1` is 30 to 70%

Looking up `Nc1nnc(-c2ccccc2O)cc1N1CCCN(c2ccnc(C#CCN3CCOC4(CCCC4)C3)n2)CC1` , I found its inhibition at 1 µM recorded as 30 to 70%

Record CC1CCC(C)N1CC#Cc1nccc(N2CCN(c3cc(-c4ccccc4O)nnc3N)CC[C@H]2C)n1 (stereo partly drawn) . Reported inhibition at 1 µM: 30 to 70%

// `C[C@@H]1CCN(c2cc(-c3ccccc3O)nnc2N)CCN1c1ccnc(C#CCN2CC(F)(F)[C@H]2C)n1` : inhibition at 1 µM value = < 30%

The reported inhibition at 1 µM of the molecule CC(C)(C)OC(=O)NCC#Cc1nccc(N2CCC3CCC(C2)N3c2cc(-c3ccccc3O)nnc2N)n1 (stereo not drawn) was 30 to 70%

inhibition at 1 µM in this record for `COC1CN(CC#Cc2nccc(N3CCCN(c4cc(-c5ccccc5O)nnc4N)CC3)n2)C1` : 30 to 70%

Memo: `Nc1nnc(-c2ccccc2O)cc1N1CCN(c2ccnc(C#CCNC(=O)c3ccncc3)n2)CC1` , reported inhibition at 1 µM: 30 to 70%

Sample `Nc1nnc(-c2ccccc2O)cc1N1CCCN(c2ccnc(C#CCn3cncn3)n2)CC1` ; inhibition at 1 µM observed: 30 to 70%

# inhibition at 1 µM of `C[C@@H]1CCN(c2cc(-c3ccccc3O)nnc2N)CCN1c1ccnc(C#CCN2[C@H](C)COC[C@@H]2C)n1` = < 30%

* * *

# TARGET ENTITY: SMARCA2-HiBiT HeLa cells (protein which is expressed from the SMARCA2 gene) (Homo sapiens, UniProt P51531)
# Construct: protein which is expressed from the SMARCA2 and SMARCA4 genes; host or cells: HeLa (SMARCA2-HiBiT engineered line)
# Sequence (P51531 whole entry): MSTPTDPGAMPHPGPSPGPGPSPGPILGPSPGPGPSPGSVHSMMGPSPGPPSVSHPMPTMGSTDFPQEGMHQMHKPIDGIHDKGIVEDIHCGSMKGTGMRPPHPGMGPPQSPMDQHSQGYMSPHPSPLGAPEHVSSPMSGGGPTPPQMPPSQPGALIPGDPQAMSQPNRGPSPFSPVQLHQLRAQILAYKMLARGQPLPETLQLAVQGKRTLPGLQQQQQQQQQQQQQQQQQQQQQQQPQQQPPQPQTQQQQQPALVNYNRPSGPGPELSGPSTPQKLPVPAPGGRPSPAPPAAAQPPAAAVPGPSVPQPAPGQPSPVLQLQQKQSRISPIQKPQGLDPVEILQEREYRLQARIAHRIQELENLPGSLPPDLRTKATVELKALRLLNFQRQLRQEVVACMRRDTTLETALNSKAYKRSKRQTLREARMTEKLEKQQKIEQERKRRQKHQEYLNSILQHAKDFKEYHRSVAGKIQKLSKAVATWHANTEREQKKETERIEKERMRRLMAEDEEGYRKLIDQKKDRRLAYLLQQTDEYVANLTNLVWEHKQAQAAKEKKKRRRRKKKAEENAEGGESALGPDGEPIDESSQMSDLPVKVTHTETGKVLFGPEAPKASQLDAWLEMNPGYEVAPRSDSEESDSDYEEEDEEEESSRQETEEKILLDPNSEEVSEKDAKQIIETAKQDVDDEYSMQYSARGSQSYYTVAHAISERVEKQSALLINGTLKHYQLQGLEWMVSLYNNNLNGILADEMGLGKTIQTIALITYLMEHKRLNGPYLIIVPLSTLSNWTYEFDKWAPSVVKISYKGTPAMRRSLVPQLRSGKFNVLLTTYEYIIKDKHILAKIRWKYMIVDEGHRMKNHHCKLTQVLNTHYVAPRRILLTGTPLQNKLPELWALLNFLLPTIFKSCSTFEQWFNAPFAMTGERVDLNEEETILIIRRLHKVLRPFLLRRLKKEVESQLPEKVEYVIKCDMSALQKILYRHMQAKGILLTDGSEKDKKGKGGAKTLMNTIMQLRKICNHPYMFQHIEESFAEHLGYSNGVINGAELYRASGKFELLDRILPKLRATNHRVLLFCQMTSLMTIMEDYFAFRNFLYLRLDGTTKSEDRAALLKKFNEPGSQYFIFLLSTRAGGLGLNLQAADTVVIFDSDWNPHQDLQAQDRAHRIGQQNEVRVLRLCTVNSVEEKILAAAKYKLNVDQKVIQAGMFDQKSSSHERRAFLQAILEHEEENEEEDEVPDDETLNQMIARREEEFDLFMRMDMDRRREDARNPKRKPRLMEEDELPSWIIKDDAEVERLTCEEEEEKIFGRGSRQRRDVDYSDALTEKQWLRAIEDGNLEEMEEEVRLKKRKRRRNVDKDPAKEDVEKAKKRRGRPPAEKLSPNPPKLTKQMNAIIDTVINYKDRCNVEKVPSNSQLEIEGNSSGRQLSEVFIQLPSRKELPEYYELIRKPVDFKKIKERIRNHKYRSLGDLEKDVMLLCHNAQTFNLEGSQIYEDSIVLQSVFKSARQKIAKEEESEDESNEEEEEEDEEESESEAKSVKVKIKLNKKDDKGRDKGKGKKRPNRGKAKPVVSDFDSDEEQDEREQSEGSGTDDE
# ASSAY DETAILS: SMARCA2 degradation assay (HiBiT-fusion HeLa cell line, 24 h, luminescence)
# Format: cell-based
# CONDITION PARAMETERS: @ 1 μM
READOUT LABEL: SMARCA2 % Degradation @ 1 μM

Example cases with answers are listed next.
MOLECULE	RESULT
CC(C)(C)OC(=O)NCC#Cc1nccc(N2CC3CC(Oc4cc(-c5ccccc5O)nnc4N)CC3C2)n1 (centres unmarked) [Compound P-221]	+++ (+++=>70%)
CN1C(=O)NC2(CCN(CC#Cc3nccc(N4CCCN(c5cc(-c6ccccc6O)nnc5N)CC4)n3)CC2)C1=O [Compound P-362]	++ (++=30-70%)
CC(C)(C)OC(=O)N1C2CCC1CN(CC#Cc1nccc(N3CCCN(c4cc(-c5ccccc5O)nnc4N)CC3)n1)C2 [Compound P-358]	++ (++=30-70%)
Nc1nnc(-c2ccccc2O)cc1N1C[C@H]2CN(c3ccnc(C#CCN4CC(F)(F)C4)n3)C[C@H]2C1 [Compound P-180]	++ (++=30-70%)
CN(CC#Cc1nccc(N2CCCN(c3cc(-c4ccccc4O)nnc3N)CC2)n1)C(=O)c1cc2ncccn2n1 [Compound P-24]	+++ (+++=>70%)

Measured SMARCA2 % Degradation @ 1 μM, C[C@@H]1CCN(c2cc(-c3ccccc3O)nnc2N)CCN1c1ccnc(C#CCN2C3CCC2COC3)n1 [Compound P-160] : +++ (+++=>70%)

Form: molecule = C[C@@H]1CCN(c2cc(-c3ccccc3O)nnc2N)CCN1c1ccnc(C#CC23CCC(C2)N3)n1 (some centres unmarked) [Compound P-196] ; SMARCA2 % Degradation @ 1 μM = ++ (++=30-70%)

Record Cn1nccc1OCC#Cc1nccc(N2CCCN(c3cc(-c4ccccc4O)nnc3N)CC2)n1 [Compound P-131] , field SMARCA2 % Degradation @ 1 μM: ++ (++=30-70%)

molecule Nc1nnc(-c2ccccc2O)cc1N1CCN(c2ccnc(C#CCNC(=O)c3nc4ccccc4s3)n2)CC1 [Compound P-118] , SMARCA2 % Degradation @ 1 μM observed: ++ (++=30-70%)

Lab note: measured SMARCA2 % Degradation @ 1 μM of Cn1ccc(NCC#Cc2nccc(N3C4CCC3CN(c3cc(-c5ccccc5O)nnc3N)C4)n2)n1 [Compound P-287] was ++ (++=30-70%)

According to the records, this molecule CC1CCN(c2ccnc(C#CCNC(=O)c3cc4ncccn4n3)n2)CCN1c1cc(-c2ccccc2O)nnc1N (centres unmarked) [Compound P-19] displays SMARCA2 % Degradation @ 1 μM of ++ (++=30-70%)

Lab note: measured SMARCA2 % Degradation @ 1 μM of Nc1nnc(-c2ccccc2O)cc1N1CC2CCC(C1)N2c1ccnc(C#CCNc2ncco2)n1 [Compound P-106] was ++ (++=30-70%)

Measured SMARCA2 % Degradation @ 1 μM, Nc1nnc(-c2ccccc2O)cc1N1CCN(c2ccnc(C#CCCNC(=O)c3cc4ncccn4n3)n2)CC1 [Compound P-94] : ++ (++=30-70%)
